The measurements presented in this section are drawn from patent US20100260765A1.

Molecular target: T1, mouse KDR (Flk-1)/Fc (Cat. #443-KD/CF, R&D Systems, Inc.) (mouse, UniProt P35918 20-762)
T1 construct: Bought reagent; also called mouse VEGFR2; KDR mouse ortholog; not shown: Fc of the bought fusion protein
T1 sequence (P35918 20-762 limits assumed): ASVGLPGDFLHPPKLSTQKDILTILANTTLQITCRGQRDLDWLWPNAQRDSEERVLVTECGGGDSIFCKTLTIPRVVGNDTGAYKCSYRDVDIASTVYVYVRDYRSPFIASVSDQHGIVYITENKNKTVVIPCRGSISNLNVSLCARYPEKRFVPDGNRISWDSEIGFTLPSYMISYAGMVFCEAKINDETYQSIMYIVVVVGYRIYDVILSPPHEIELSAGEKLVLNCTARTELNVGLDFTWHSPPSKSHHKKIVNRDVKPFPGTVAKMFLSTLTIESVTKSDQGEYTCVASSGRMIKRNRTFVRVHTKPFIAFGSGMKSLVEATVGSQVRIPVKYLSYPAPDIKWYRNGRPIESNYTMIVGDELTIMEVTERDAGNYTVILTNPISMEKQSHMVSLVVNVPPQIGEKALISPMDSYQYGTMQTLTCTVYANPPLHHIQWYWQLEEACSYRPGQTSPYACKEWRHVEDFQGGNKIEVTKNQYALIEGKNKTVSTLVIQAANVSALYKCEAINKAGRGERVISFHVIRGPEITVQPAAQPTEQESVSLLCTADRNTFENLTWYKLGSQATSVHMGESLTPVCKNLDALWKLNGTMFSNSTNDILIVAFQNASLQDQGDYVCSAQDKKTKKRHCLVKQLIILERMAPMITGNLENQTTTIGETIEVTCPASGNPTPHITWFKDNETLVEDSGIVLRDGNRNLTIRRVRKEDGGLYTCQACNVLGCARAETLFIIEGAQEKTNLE
Experiment: ELISA, Flk-1 coat 5 ug/mL, antibody 1 ug/mL
Protocol: The cross-reactivity of purified antibodies was tested against KDR mouse ortholog KDR mouse ortholog (mouse VEGFR2, or Flk-1) and human VEGFR1 (Flt-1). The ability of the antibodies to bind soluble KDR Ig4-7 domain and to the entire KDR extracellular domain (ECD) was also measured. Cross-reactivity experiments were carried out and measured using an ELISA based assay as described in Example 6. […] Antibody controls included IgG1 and IgG4 (Sigma-Aldrich, Cat. #15154 and #14639, respectively).

[
  {
    "binder": "29H3 (antibody, V domains shown, Fully human monoclonal antibody from a XenoMouse hybridoma (IgG2 or IgG4 strain), purified) VH: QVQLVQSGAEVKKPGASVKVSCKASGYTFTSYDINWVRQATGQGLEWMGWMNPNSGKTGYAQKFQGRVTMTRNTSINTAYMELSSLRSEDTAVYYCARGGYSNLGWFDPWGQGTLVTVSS VL: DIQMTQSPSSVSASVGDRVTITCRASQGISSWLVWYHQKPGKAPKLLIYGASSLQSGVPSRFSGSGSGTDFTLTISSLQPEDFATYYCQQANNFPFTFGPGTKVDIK",
    "ELISA reading": 3.04
  },
  {
    "binder": "31E11 (antibody, V domains shown, Fully human monoclonal antibody from a XenoMouse hybridoma (IgG2 or IgG4 strain), purified) VH: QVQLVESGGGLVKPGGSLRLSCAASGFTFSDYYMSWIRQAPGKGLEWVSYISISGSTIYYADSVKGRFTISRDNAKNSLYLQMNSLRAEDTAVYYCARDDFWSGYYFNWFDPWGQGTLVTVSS VL: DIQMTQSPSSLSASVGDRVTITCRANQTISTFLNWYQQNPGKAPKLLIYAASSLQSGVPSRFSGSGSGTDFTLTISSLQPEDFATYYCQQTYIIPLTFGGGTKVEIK",
    "ELISA reading": 3.1
  },
  {
    "binder": "33C3 (antibody, V domains shown, Fully human monoclonal antibody from a XenoMouse hybridoma (IgG2 or IgG4 strain), purified) VH: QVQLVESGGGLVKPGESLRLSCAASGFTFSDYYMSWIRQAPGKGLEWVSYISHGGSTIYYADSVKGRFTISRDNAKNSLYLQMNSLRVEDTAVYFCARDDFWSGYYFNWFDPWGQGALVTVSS VL: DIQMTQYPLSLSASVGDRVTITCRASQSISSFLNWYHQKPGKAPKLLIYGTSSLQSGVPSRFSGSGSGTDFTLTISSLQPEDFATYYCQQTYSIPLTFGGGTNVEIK",
    "ELISA reading": 3.48
  },
  {
    "binder": "24B3 (antibody, V domains shown, Fully human monoclonal antibody from a XenoMouse hybridoma (IgG2 or IgG4 strain), purified) VH: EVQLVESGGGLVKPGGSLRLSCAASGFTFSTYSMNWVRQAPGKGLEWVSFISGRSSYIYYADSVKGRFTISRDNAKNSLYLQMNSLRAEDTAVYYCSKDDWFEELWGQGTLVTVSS VL: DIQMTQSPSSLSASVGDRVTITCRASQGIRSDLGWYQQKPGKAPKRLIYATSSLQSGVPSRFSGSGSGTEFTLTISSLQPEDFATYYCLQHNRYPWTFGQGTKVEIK",
    "ELISA reading": 3.39
  },
  {
    "binder": "32F4 (antibody, V domains shown, Fully human monoclonal antibody from a XenoMouse hybridoma (IgG2 or IgG4 strain), purified) VH: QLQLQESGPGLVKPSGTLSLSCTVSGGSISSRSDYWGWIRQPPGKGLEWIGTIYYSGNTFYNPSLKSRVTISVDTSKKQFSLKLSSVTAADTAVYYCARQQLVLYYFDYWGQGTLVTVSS VL: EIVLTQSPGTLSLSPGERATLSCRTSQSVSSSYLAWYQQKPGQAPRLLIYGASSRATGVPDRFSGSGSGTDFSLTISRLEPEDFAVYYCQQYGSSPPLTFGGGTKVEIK",
    "ELISA reading": 2.62
  },
  {
    "binder": "22B8 (antibody, V domains shown, Fully human monoclonal antibody from a XenoMouse hybridoma (IgG2 or IgG4 strain), purified) VH: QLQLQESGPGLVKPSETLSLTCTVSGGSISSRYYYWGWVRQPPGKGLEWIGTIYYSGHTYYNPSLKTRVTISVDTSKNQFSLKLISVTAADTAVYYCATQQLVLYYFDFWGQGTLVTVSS VL: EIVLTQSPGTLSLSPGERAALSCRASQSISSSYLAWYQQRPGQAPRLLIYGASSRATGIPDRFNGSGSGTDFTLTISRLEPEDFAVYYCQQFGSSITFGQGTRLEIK",
    "ELISA reading": 3.21
  },
  {
    "binder": "32G7 (antibody, V domains shown, Fully human monoclonal antibody from a XenoMouse hybridoma (IgG2 or IgG4 strain), purified) VH: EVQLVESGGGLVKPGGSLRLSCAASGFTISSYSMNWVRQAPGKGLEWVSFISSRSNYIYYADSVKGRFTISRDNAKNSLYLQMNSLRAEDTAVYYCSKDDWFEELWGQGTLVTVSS VL: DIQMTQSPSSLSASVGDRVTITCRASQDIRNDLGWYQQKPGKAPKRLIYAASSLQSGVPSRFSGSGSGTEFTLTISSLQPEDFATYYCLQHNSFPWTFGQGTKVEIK",
    "ELISA reading": 2.67
  },
  {
    "binder": "33B1 (antibody, V domains shown, Fully human monoclonal antibody from a XenoMouse hybridoma (IgG2 or IgG4 strain), purified) VH: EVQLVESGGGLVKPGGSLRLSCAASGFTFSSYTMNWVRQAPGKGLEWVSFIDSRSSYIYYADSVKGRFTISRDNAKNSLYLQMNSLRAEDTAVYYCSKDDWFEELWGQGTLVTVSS VL: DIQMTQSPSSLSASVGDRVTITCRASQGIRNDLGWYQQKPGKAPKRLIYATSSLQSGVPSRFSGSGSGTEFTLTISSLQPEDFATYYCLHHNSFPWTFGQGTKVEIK",
    "ELISA reading": 3.12
  },
  {
    "binder": "33E1 (antibody, V domains shown, Fully human monoclonal antibody from a XenoMouse hybridoma (IgG2 or IgG4 strain), purified) VH: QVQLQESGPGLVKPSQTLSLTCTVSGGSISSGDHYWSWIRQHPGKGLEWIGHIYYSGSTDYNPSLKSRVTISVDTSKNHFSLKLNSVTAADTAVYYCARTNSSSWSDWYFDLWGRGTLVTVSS VL: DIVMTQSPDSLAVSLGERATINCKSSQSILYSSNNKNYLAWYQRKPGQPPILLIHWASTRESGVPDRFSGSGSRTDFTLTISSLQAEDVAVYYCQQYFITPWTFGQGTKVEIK",
    "ELISA reading": 2.17
  }
]
